Target: α-glucosidase I (Rattus norvegicus)
Construct: Purified α-glucosidase I and II were purified from rat liver by known methods; from tissue; host or cells: rat liver
Sequence (O88941 1-834): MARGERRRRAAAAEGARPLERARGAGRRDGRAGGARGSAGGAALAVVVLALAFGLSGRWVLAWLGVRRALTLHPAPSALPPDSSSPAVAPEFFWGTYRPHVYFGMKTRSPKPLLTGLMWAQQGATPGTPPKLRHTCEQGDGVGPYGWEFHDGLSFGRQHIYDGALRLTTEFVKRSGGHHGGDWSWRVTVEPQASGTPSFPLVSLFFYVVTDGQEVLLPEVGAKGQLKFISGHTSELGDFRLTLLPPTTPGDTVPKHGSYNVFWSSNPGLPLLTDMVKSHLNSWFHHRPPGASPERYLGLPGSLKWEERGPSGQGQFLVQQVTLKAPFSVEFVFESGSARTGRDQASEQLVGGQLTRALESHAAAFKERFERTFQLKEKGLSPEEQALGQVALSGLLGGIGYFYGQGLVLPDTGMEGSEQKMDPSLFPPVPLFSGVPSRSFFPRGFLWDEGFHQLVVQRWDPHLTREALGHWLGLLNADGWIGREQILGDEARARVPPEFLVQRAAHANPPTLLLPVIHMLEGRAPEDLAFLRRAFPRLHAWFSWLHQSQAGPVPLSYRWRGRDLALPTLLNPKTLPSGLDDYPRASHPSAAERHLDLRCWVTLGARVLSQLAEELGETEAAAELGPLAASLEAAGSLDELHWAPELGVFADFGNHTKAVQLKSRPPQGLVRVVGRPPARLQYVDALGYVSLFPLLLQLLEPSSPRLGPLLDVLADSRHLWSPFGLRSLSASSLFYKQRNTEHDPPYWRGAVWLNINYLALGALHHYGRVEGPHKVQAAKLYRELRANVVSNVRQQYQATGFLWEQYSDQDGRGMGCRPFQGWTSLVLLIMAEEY
Assay: In vitro inhibition of purified α-glucosidase I, 2-AA-labeled FOS substrates, HPLC
Format: biochemical
Conditions: pentamannose substrate Glc3Man5GlcNAc1; read-out: α-Glucosidase I Glc3Man5GlcNAc1 IC50
Method: All chromatography was performed at 30° C. The first solvent, solvent A, was acetonitrile and the second solvent, solvent B, was Milli-Q water. […] Samples (<50 μl) were injected in Milli-Q water/acetonitrile (3/7, v/v). […] Glucose units were determined, following comparison with a 2-AA-labeled glucose oligomer ladder (derived from a partial hydrolysate of dextran) external standard using Peak Time software (developed in-house). […]
Metric name: IC50
Form entry: enter the amount, then its unit.

Exam item: Tell me measured IC50 for CCCCN1C[C@H](O)[C@@H](O)[C@H](O)[C@H]1CO [NB-DNJ, N-butyl-DNJ, reference compound] please.
Marked response: 0.68 µM

Exam item: Tell me measured IC50 for O=[N+]([O-])c1ccc(NCCCCCCN2C[C@H](O)[C@@H](O)[C@H](O)[C@H]2CO)c([N+](=O)[O-])c1 [NDP-DNJ] please.
Marked response: 0.108 µM
